Molecular target: Cytochrome P450 2C19 (Homo sapiens)
Sequence (P33261 whole entry): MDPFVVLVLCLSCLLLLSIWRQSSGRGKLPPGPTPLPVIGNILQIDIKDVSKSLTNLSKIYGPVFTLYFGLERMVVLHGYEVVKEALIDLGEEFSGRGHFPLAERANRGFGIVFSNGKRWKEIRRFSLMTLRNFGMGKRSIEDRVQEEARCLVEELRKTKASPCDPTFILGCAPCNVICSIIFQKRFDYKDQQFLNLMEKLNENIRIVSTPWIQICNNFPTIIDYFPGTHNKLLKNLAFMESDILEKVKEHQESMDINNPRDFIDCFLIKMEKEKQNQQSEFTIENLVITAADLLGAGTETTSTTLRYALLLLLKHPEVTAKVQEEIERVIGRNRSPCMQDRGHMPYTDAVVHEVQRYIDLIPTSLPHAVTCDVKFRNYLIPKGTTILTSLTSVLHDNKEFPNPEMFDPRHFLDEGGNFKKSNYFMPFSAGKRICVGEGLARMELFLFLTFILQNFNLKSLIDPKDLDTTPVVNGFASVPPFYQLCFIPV
Experiment: Inhibition of CYP2C19 using recombinant human CYP enzyme at a single time point by LC-MS/MS analysis
value kind: IC50

> print(dat)
                            smiles.entry  value.kind  recorded.result
1  CCC(=O)N1CCc2cc(-c3cncc4ccccc34)ccc21        IC50          > 50 µM
2        CC(=O)N1CCc2cc(-c3cnccc3C)ccc21        IC50          > 50 µM

====

Molecular target: Cytochrome P450 2D6 (Homo sapiens)
Sequence (P10635 whole entry): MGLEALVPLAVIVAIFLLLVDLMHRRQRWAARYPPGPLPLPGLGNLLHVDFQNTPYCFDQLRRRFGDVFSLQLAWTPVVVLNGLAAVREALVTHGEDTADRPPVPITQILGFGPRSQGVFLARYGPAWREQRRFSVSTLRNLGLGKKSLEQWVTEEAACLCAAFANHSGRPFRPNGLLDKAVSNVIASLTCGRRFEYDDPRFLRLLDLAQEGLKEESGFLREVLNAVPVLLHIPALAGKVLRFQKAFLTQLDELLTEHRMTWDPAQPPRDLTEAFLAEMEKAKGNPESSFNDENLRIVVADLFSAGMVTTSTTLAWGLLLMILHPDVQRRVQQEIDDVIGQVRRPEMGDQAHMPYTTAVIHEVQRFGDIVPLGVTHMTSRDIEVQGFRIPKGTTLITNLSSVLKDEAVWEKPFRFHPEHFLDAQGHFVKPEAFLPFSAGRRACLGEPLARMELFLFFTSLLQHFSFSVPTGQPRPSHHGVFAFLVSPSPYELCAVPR
Assay: Inhibition of CYP2D6 using recombinant human CYP enzyme at a single time point by LC-MS/MS analysis
Quick reference for IC50 among some molecules
value kind: IC50

> print(dat)
                            smiles.entry  recorded.result
1  CCC(=O)N1CCc2cc(-c3cncc4ccccc34)ccc21          > 50 µM
2        CC(=O)N1CCc2cc(-c3cnccc3C)ccc21          > 50 µM

====

Molecular target: Cytochrome P450 11B2, mitochondrial (Homo sapiens, UniProt P19099)
Sequence (P19099 whole entry): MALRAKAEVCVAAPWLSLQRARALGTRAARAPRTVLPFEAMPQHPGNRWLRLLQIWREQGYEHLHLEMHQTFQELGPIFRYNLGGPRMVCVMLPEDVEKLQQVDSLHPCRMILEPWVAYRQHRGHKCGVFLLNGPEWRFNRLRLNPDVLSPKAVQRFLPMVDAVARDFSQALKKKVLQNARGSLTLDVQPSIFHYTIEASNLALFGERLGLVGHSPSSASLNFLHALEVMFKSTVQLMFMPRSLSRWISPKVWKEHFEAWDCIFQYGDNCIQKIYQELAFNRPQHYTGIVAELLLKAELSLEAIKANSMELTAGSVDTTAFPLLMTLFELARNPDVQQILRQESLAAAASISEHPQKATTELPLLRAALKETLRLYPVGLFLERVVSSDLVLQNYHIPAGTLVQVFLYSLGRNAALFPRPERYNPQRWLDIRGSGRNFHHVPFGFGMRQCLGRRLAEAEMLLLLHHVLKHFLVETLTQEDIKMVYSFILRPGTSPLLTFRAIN
Assay: Inhibition of human CYP11B2 expressed in hamster V79MZh cells using deoxycorticosterone as substrate at 500 nM
Assay type: cell-based
value kind: inhibition (%)

> print(dat)
                                smiles.entry  value.kind  recorded.result
 1         CC(=O)N1CCc2cc(-c3cncc(F)c3)ccc21  inhibition               93
 2  CC(C)C(=O)N1CCc2cc(-c3cncc4ccccc34)ccc21  inhibition               90
 3  O=C(C1CC1)N1CCc2cc(-c3cncc4ccccc34)ccc21  inhibition               98
 4    O=C(Cc1ccccc1)N1CCc2cc(-c3cccnc3)ccc21  inhibition              2.2
 5        COc1cncc(-c2ccc3c(c2)CCN3C(C)=O)c1  inhibition              100
 6            CC(=O)n1ccc2cc(-c3cccnc3)ccc21  inhibition               98
 7           CCC(=O)N1CCc2cc(-c3cccnc3)ccc21  inhibition               66
 8         O=C(CCCl)N1CCc2cc(-c3cccnc3)ccc21  inhibition                7
 9  COc1ccc(C(=O)N2CCc3cc(-c4cccnc4)ccc32)cc1  inhibition               26
10           CC(=O)N1CCc2cc(-c3cnccc3C)ccc21  inhibition              100
11     CCC(=O)N1CCc2cc(-c3cncc4ccccc34)ccc21  inhibition              100

====

Biological target: Cytochrome P450 1A2 (Homo sapiens, UniProt P05177)
Sequence (P05177 whole entry): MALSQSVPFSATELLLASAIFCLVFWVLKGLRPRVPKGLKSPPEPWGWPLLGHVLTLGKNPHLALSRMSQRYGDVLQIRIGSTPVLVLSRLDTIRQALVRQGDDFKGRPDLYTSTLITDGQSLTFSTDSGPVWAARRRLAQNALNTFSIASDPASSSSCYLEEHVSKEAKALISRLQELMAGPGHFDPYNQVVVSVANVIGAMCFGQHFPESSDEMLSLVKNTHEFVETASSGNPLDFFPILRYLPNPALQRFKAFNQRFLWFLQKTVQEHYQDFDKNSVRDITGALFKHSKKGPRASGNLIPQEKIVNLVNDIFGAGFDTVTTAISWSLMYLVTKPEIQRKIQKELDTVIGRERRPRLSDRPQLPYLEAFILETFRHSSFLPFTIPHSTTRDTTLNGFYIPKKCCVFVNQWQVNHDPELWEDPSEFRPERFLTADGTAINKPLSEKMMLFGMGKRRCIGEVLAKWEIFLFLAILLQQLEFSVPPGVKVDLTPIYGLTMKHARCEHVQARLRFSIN
Experiment: Inhibition of CYP1A2 using recombinant human CYP enzyme at a single time point by LC-MS/MS analysis
value kind: IC50

> print(dat)
                            smiles.entry  value.kind  recorded.result
1        CC(=O)N1CCc2cc(-c3cnccc3C)ccc21        IC50          > 50 µM
2  CCC(=O)N1CCc2cc(-c3cncc4ccccc34)ccc21        IC50          > 50 µM
